Values compiled from patent US20250304658A1.

- ASSAY_TARGET: BK virus VP1 protein, genotype IV (BK virus)
- ASSAY_TEXT: cell-based or functional assay
Known EC50, pseudovirus neutralization (mAb mixed with irrelevant isotype matched mAb M2) of a selection of binders
Report the figure in nM without appending any unit label.

2F11 (antibody, V domains shown) VH: EVQLVQSGAEVKKPGESLKISCKGSGYSFTNYWIGWVRQMPGKGLEWMGIIYPGDSDTRYSPSFQGQVTLSADKSISTAYLQWNSLKASDTAMYYCATHARSWNYVAYWGQGTLVTVAS VL: DIQMTQSPSSLSASVGDRVTITCRASQSVNNFLNWYQQKPGTAPKLLIYAASSLQGGVPSRFSGSGSGTDFTLTISSLQPEDFATYYCQQSNTTPWTFGQGTKVEIK; 0.00185
2A10 (antibody, V domains shown) VH: EVQLVQSGAEVKKPGESLKISCKGSGYSFTYYWIGWVRQMPGKGLEWMGIIYPGDSDTRYSPSFQGQVTISADKSISTAYLQWSSLKASDTAMYYCTTHARNWNNVAYWGQGTLVTVSS VL: DIQMTQSPSSLSASVGDRLTITCRASQNINTFLNWYQQNPGKAPKVLIYAASSLESGVPSRFSGSGSGTDFTLTISSLQPEDFATYYCQQSSSTPWTFGQGTKVEIK; 0.00072
6H12 (antibody, V domains shown) VH: EVQLVESGGGLVQPGGSLRLSCAASGFTFSSYEMNWVRQAPGKGLEWVSYISSGGSSIKYADSVRGRFAFSRDNAENSVHLQMNSLRAEDTAVYYCARVGGSYYYSYAMDVWGQGTAVTVSS VL: DIQLTQSPSFLSASVGDRVTITCWASQDISSYLAWYQQKPGKAPKLLIYAASTLQSGVPSRFTGSGSGTEFTLTISSLQPEDFATYYCQQPHNSPFSFGPGTKVDVK; 0.944
9G9 (antibody, V domains shown) VH: EVQLLESGGGLVQPGGSLRLSCAASGFTFHNYAMSWVRQAPGKGLEWVSGISGSGGTAYYADSVKGRFTISRDNSKNTLYLQMNSLRADDTALYYCAKDRFLEWVEGFDSWGQGTLVTVSS VL: DIQMTQSPSSLSASVGDRVTITCRASQSIGSFLIWYQQKPGKAPKLLIYAASSLQSGVPSRFSGSGSGTDFTLIISSLQPEDFATYYCQQSYNTPLTFGGGTKVEIK; 0.196

Bench note: what EC50, pseudovirus neutralization (mAb mixed with irrelevant isotype matched mAb M2) did 6E1 (antibody, V domains shown) VH: EVQLLESGGGLVQPGGSLRLSCAASGFTFSSFAMSWVRQAPGKGLEWVSGISGSGGSTYYADSVKGRFTISRDNSKNTLYLQMNSLRAEDTAIYYCAKDKRNWNYGIDSFDFWGQGTMVTVSS VL: DIQMTQSPSSLSASVGGRVTITCRTSQSISGYLNWYQQKAGKAPKLLIYATSNLQSGVPSRFTGSGSGTDFTLTISSLQPEDFAAYYCHQSHSPPFTFGPGTKVAFK show?
0.021
